Catalogue of binders with associated binding signal
measurement-target: T1, RBFOX1 RRM RbFoxmut (Fox-RRM*) (Homo sapiens, UniProt Q9NWB1 109-208, R118D;E147R;N151S;E152T)
T1 sequence: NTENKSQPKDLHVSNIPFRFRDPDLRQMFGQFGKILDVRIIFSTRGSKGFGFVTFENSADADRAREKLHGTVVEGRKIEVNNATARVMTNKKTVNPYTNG
measurement-protocol: EMSA; HiTS-Eq, 1 nM pool, 10 min; buffer printed only for the single-RNA assays: 10 mM Tris pH 7.5, 150 mM NaCl, 3.4 mM EDTA, 0.001% NP-40, 30 C
condition: tags: His6 N-terminal (pET28a); label: 5' 32P
Over roughly 16,000 sequences, “ka relative to ugcaugu” has its median near 0.096; the highest 2% begin near 0.35. Only a selection was taken, and the highest values are over-represented in it overall.

CCCCGAA (DNA:RNA) RNA: GGGAGACCGGAAUUCAGAUUGUCCCCCCGAAUUAAAUCCCGUCGUAGCCACCA DNA 1: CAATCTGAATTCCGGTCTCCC DNA 2: TGGTGGCTACGACGGGATT
0.136 KA relative to UGCAUGU
CGGUUCC (DNA:RNA) RNA: GGGAGACCGGAAUUCAGAUUGUCCCGGUUCCUUAAAUCCCGUCGUAGCCACCA DNA 1: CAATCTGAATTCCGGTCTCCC DNA 2: TGGTGGCTACGACGGGATT
0.104 KA relative to UGCAUGU
CUGCGUG (DNA:RNA) RNA: GGGAGACCGGAAUUCAGAUUGUCCCUGCGUGUUAAAUCCCGUCGUAGCCACCA DNA 1: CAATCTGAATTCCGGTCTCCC DNA 2: TGGTGGCTACGACGGGATT
0.232 KA relative to UGCAUGU
GACGUGU (DNA:RNA) RNA: GGGAGACCGGAAUUCAGAUUGUCCGACGUGUUUAAAUCCCGUCGUAGCCACCA DNA 1: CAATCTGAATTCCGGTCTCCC DNA 2: TGGTGGCTACGACGGGATT
0.15 KA relative to UGCAUGU
CGAAUGU (DNA:RNA) RNA: GGGAGACCGGAAUUCAGAUUGUCCCGAAUGUUUAAAUCCCGUCGUAGCCACCA DNA 1: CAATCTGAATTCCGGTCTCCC DNA 2: TGGTGGCTACGACGGGATT
1.07 KA relative to UGCAUGU
GAAUGUU (DNA:RNA) RNA: GGGAGACCGGAAUUCAGAUUGUCCGAAUGUUUUAAAUCCCGUCGUAGCCACCA DNA 1: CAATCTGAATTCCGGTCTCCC DNA 2: TGGTGGCTACGACGGGATT
0.884 KA relative to UGCAUGU
GAUGUUU (DNA:RNA) RNA: GGGAGACCGGAAUUCAGAUUGUCCGAUGUUUUUAAAUCCCGUCGUAGCCACCA DNA 1: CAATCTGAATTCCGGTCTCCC DNA 2: TGGTGGCTACGACGGGATT
0.125 KA relative to UGCAUGU
CGAAAUG (DNA:RNA) RNA: GGGAGACCGGAAUUCAGAUUGUCCCGAAAUGUUAAAUCCCGUCGUAGCCACCA DNA 1: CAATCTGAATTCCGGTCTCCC DNA 2: TGGTGGCTACGACGGGATT
0.101 KA relative to UGCAUGU

Request: Please give measured binding signal of the following entry: CGAAUUG (DNA:RNA) RNA: GGGAGACCGGAAUUCAGAUUGUCCCGAAUUGUUAAAUCCCGUCGUAGCCACCA DNA 1: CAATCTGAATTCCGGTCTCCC DNA 2: TGGTGGCTACGACGGGATT
Response: 0.141 KA relative to UGCAUGU
